Cited source for all entries: paper PMC8119466

Overview of recorded % Phosphatase Activity (compared to DMSO) PRL-2 for various compounds
# Test System: recombinant PRL-2 (Homo sapiens, UniProt Q12974)
# Construct: 6xHis (N, cleaved yes); made in house; host or cells: E. coli One Shot BL21 Star
# Sequence (Q12974 whole entry): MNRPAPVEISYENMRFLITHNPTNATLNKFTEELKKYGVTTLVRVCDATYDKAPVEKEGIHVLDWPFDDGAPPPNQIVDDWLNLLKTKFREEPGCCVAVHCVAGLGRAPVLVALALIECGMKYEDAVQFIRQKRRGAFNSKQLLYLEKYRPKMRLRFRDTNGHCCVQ
# Protocol: In vitro phosphatase assay (DiFMUP hydrolysis), PRL-2;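 further: PRL-2 activity read as DiFMUP hydrolysis after 20 min at room temperature with drug, enzyme first pre-reduced at 4 °C for 20 min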
# Assay type: biochemical
# Condition Info: FDA-approved drug screen; activity compared to DMSO
Metric: % Phosphatase Activity (compared to DMSO) PRL-2 (%)

CCn1c(=O)c(-c2cc[nH]n2)cc2c(C)nc(N)nc21 | 5267
O=C1CCC(N2C(=O)c3ccccc3C2=O)C(=O)N1 (centres unmarked) [Thalidomide] | 91
COc1cc2nc(N3CCN(C(=O)C4CCCO4)CC3)nc(N)c2cc1OC (centres unmarked) [Terazosin] | 423
O=c1ccn([C@@H]2O[C@H](CO)[C@@H](O)[C@H]2O)c(=O)[nH]1 | 97
CN1[C@@H]2CC[C@H]1C[C@@H](OC(=O)c1c[nH]c3ccccc13)C2 | 100
